// provenance: patent US4753953A

# Test system: E. coli ATCC 10536
# procedure.summary: MIC, in vitro antibacterial activity (standard strains)
# Assay type: cell-based, Escherichia coli
# stated.conditions: Escherichia coli, ATCC10536; 10^6 cells/ml; Gram -; read-out: MIC
Measured MIC values are reported for all entries that follow.
Number only, in mg/L; omit the unit.

# example entries with known answers
# molecule, MIC / mg/L
data = [
    ("CCn1cc(C(=O)O)c(=O)c2cc(F)c(N3C[C@@H](N)[C@@H](C)C3)c(Cl)c21 (relative stereo)", 0.05),
    ("CCn1cc(C(=O)O)c(=O)c2cc(F)c(N3C[C@@H](N)[C@@H](C)C3)c(F)c21 (relative stereo)", 0.05),
    ("C[C@H]1CN(c2c(F)cc3c(=O)c(C(=O)O)cn4c3c2OC[C@@H]4C)C[C@H]1N.Cl (mixture of isomers)", 0.025),
    ("CCNCC1CN(c2c(F)cc3c(=O)c(C(=O)O)cn(C4CC4)c3c2Cl)CC1C (stereo not shown)", 0.025),
    ("C[C@@H]1CN(c2c(F)cc3c(=O)c(C(=O)O)cn(C4CC4)c3c2F)C[C@H]1N (relative stereo)", 0.05),
]

Return MIC for the following molecule: C[C@H]1CN(c2cc3c(cc2F)c(=O)c(C(=O)O)cn3C2CC2)C[C@H]1N (relative stereo)
0.05

Specify reported MIC for the molecule shown: C[C@H]1CN(c2c(F)cc3c(=O)c(C(=O)O)cn(CCF)c3c2F)C[C@H]1N (relative stereo)
0.05

* * *

Known MIC of a selection of molecules
# Tested on: E. coli ML 4707
# procedure.summary: MIC, in vitro antibacterial activity (standard strains)
# Format: cell-based, Escherichia coli
# stated.conditions: Escherichia coli, ML4707, 10^6 cells/ml; Gram -; Table 1; read-out: MIC
Please reply with the bare figure in µg/mL and do not write the unit itself.

Reference set (5 entries):
# molecule, MIC, µg/mL
measured = [
    ("C[C@H]1CN(c2cc3c(cc2F)c(=O)c(C(=O)O)cn3C2CC2)C[C@H]1N (relative stereo) [Example 33]", 0.05),
    ("C[C@H]1CN(c2c(F)cc3c(=O)c(C(=O)O)cn(CCF)c3c2Cl)C[C@H]1N (relative stereo) [Example 27]", 0.05),
    ("CC1COc2c(N3C[C@@H](N)[C@@H](C)C3)c(F)cc3c(=O)c(C(=O)O)cn1c23.Cl (relative stereo) [Example 29]", 0.05),
    ("C[C@H]1CN(c2c(F)cc3c(=O)c(C(=O)O)cn(CCF)c3c2F)C[C@H]1N (relative stereo) [Example 25]", 0.05),
    ("C[C@H]1CN(c2c(F)cc3c(=O)c(C(=O)O)cn(C4CC4)c3c2Br)C[C@H]1N (relative stereo) [Example 21]", 0.0125),
]

Fill in reported MIC for this entry: CC1CN(c2c(F)cc3c(=O)c(C(=O)O)cn(C4CC4)c3c2Cl)CC1N (stereo not drawn) [Example 7]
0.0125

Tell me measured MIC for CC1CN(c2c(F)cc3c(=O)c(C(=O)O)cn(C4CC4)c3c2Cl)CC1CN (stereo not drawn) [Example 1] please.
0.025

Respond only with MIC recorded for C[C@H]1CN(c2c(F)cc3c(=O)c(C(=O)O)cn4c3c2OC[C@@H]4C)C[C@H]1N.Cl (mixture of isomers) [Example 31]
0.025

Tell me its MIC given CCNCC1CN(c2c(F)cc3c(=O)c(C(=O)O)cn(C4CC4)c3c2F)CC1C (stereo not drawn) [Example 15] as the entry.
0.05
